Taken from patent US20100035311A1.

Reported kcat, fold difference (detergent-buffer higher than detergent-free) values for a set of molecules
Tested on: Medicago truncatula hydroperoxide lyase CYP74C3 (HPLF), recombinant, wild type, N-terminal histidine-tagged
conditionDescription: detergent-buffer vs detergent-free
State the answer as a number, implicitly in fold.

{"columns": ["molecule", "assayValue"],
 "data": [
  ["CCCCC[C@@H](/C=C/C=C\\CCCCCCCC(=O)O)OO [13α-HPOD]", 6]
]}

Recorded kcat, fold difference (detergent-buffer higher than detergent-free) of CC/C=C\C/C=C\C=C\[C@H](CCCCCCCC(=O)O)OO [9α-HPOT] , please.
3

Same again, this time with CCCCC/C=C\C=C\[C@H](CCCCCCCC(=O)O)OO [9α-HPOD]
5
